Every entry's value here was drawn from paper PMC6650976.

Target: the molecule itself
Experiment: cross-linking; apo-proteins: 0.02% glutaric aldehyde, 16 h, 20 °C, protein 1 mg/mL, 20 mM Tricine-KOH pH 7.4, 50 mM KCl, 1 mM DTT, 1 mM EDTA; SDS-PAGE, Coomassie, densitometry; self-association
reported_endpoint: Monomer 20 kDa, % (%)
Express it in %; write the number only.

human recoverin mutant Y86A (natural protein, UniProt P35243 1-200, looked up, myristoylated (fraction of non-myristoylated forms did not exceed 16%), recoverin, human, UniProt P35243, N-terminal 'black' cluster mutant; Parent construct as m1; source: E. coli, expressed and purified similarly to the rWT protein (phenyl-Sepharose, Toyopearl SuperQ-650M)) MGNSKSGALSKEILEELQLNTKFSEEELCSWYQSFLKDCPTGRITQQQFQSIYAKFFPDTDPKAYAQHVFRSFDSNLDGTLDFKEAVIALHMTTAGKTNQKLEWAFSLYDVDGNGTISKNEVLEIVMAIFKMITPEDVKLLPDDENTPEKRAEKIWKYFGKNDDDKLTEKEFIEGTLANKEILRLIQFEPQKVKEKMKNA
69.3

Asked: Output measured Monomer 20 kDa, % for this item: human recoverin mutant F106A (natural protein, UniProt P35243 1-200, looked up, myristoylated (fraction of non-myristoylated forms did not exceed 16%), recoverin, human, UniProt P35243, C-terminal 'black' cluster mutant; Parent construct as m1; source: E. coli, expressed and purified similarly to the rWT protein (phenyl-Sepharose, Toyopearl SuperQ-650M)) MGNSKSGALSKEILEELQLNTKFSEEELCSWYQSFLKDCPTGRITQQQFQSIYAKFFPDTDPKAYAQHVFRSFDSNLDGTLDFKEYVIALHMTTAGKTNQKLEWAASLYDVDGNGTISKNEVLEIVMAIFKMITPEDVKLLPDDENTPEKRAEKIWKYFGKNDDDKLTEKEFIEGTLANKEILRLIQFEPQKVKEKMKNA
Given back: 62

Asked: Output measured Monomer 20 kDa, % for this item: human recoverin mutant W156A (natural protein, UniProt P35243 1-200, looked up, myristoylated (fraction of non-myristoylated forms did not exceed 16%), recoverin, human, UniProt P35243, C-terminal 'gray' cluster mutant; Parent construct as m1; source: E. coli, expressed and purified similarly to the rWT protein (phenyl-Sepharose, Toyopearl SuperQ-650M)) MGNSKSGALSKEILEELQLNTKFSEEELCSWYQSFLKDCPTGRITQQQFQSIYAKFFPDTDPKAYAQHVFRSFDSNLDGTLDFKEYVIALHMTTAGKTNQKLEWAFSLYDVDGNGTISKNEVLEIVMAIFKMITPEDVKLLPDDENTPEKRAEKIAKYFGKNDDDKLTEKEFIEGTLANKEILRLIQFEPQKVKEKMKNA
Given back: 64.6
